These data points were gathered from patent US20040024024A1.

target_or_test_system: Human recombinant MMP-2 (Homo sapiens, UniProt P08253)
Construct: made in house; host or cells: MMP-2-transfected p2AHT2 cells
Sequence (P08253 110-660): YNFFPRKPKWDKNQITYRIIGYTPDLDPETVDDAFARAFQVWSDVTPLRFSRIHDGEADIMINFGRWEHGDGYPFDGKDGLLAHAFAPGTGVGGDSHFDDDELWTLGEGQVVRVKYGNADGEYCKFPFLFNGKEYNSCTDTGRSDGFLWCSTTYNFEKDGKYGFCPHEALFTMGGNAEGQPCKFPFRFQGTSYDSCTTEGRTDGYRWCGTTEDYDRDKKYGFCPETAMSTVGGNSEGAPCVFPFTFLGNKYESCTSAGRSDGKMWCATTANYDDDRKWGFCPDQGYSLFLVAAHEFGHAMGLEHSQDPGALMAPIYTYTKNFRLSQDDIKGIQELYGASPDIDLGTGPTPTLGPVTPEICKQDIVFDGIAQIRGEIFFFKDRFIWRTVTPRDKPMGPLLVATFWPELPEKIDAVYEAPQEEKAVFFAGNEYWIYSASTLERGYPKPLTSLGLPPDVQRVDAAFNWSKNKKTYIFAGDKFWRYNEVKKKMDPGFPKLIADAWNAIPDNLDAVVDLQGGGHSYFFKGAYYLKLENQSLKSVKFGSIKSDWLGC
assay_text: In vitro MMP inhibition, Ki determination (fluorogenic substrate II)
Assay type: biochemical
run_conditions: value in parentheses
parameter: pKi
# pKi: negative log10 of molar concentration; output just the value

Examples with their reported pKi follow.
structure_string: COCCN1CCC(C(=O)NO)(S(=O)(=O)c2ccc(OCCc3cccc(-c4ccc(F)c(F)c4)c3)cc2)CC1
parameter: pKi
meas_value: 6.30
--
structure_string: CCCCCCCOc1ccc(S(=O)(=O)C2(C(=O)NO)CCOCC2)cc1
parameter: pKi
meas_value: 9.08
--
structure_string: O=C(Cc1csc2ccccc12)NCCOc1ccc(S(=O)(=O)C2(C(=O)NO)CCOCC2)cc1
parameter: pKi
meas_value: 7.95
--
structure_string: O=C(NO)C1(S(=O)(=O)c2ccc(OCCCc3cccc(-n4ccnc4)c3)cc2)CCOCC1
parameter: pKi
meas_value: 6.95
--
structure_string: CCCCc1ccc(COc2ccc(S(=O)(=O)C3(C(=O)NO)CCOCC3)cc2)cn1
parameter: pKi
meas_value: 8.29
--
structure_string: COCCN1CCC(C(=O)NO)(S(=O)(=O)c2ccc(OCCCc3cccc(-c4ccc(F)cc4F)c3)cc2)CC1
parameter: pKi
meas_value: 6.06

Input: Can you look up the measured pKi of CCCC(=O)CCCOc1ccc(S(=O)(=O)C2(C(=O)NO)CCOCC2)cc1 for me?
Output: 8.59

Input: Can you look up the measured pKi of O=C(NO)C1(S(=O)(=O)c2ccc(OCCCc3cccc(-c4cccc(O)c4)c3)cc2)CCOCC1 for me?
Output: 6.16

Input: Can you look up the measured pKi of O=C(NO)C1(S(=O)(=O)c2ccc(OCCCc3cccc(-c4ccc5ccccc5c4)c3)cc2)CCOCC1 for me?
Output: 5.99

Input: Can you look up the measured pKi of O=C(NO)C1(S(=O)(=O)c2ccc(OCCCc3cccc(-c4ccsc4)c3)cc2)CCOCC1 for me?
Output: 6.55

Input: Can you look up the measured pKi of O=C(NO)C1(S(=O)(=O)c2ccc(OCCCc3cccc(-c4ccoc4)c3)cc2)CCOCC1 for me?
Output: 6.30

Input: Can you look up the measured pKi of C#Cc1ccc(-c2cccc(CCCOc3ccc(S(=O)(=O)C4(C(=O)NO)CCN(CCOC)CC4)cc3)c2)cc1 for me?
Output: 6.54

Input: Can you look up the measured pKi of CCCCc1ccc(CCCOc2ccc(S(=O)(=O)C3(C(=O)NO)CCOCC3)cc2)cn1 for me?
Output: 7.53

* * *

target_or_test_system: Human recombinant MMP-13 (Homo sapiens)
Construct: made in house; host or cells: baculovirus / insect cells
assay_text: In vitro MMP inhibition, Ki determination (fluorogenic substrate II)
Type: biochemical
run_conditions: value in parentheses
parameter: pKi
# pKi: negative log10 of molar concentration; output just the value

Input: Can you look up the measured pKi of COCCN1CCC(C(=O)NO)(S(=O)(=O)c2ccc(OCCCc3cccc(-c4cccc(F)c4)c3)cc2)CC1 for me?
Output: 8.87

Input: Can you look up the measured pKi of CCN1CCC(C(=O)NO)(S(=O)(=O)c2ccc(OCCCSc3nc4ccccc4s3)cc2)CC1 for me?
Output: 9.72

Input: Can you look up the measured pKi of C=Cc1ccc(-c2cccc(CCCOc3ccc(S(=O)(=O)C4(C(=O)NO)CCOCC4)cc3)c2)cc1 for me?
Output: 7.58

Input: Can you look up the measured pKi of O=C(NO)C1(S(=O)(=O)c2ccc(OCCc3ccc(-c4cccc(O)c4)cc3)cc2)CCOCC1 for me?
Output: 8.99

Input: Can you look up the measured pKi of O=C(NO)C1(S(=O)(=O)c2ccc(OCCCc3cccc(-c4ccc5c(c4)OCO5)c3)cc2)CCOCC1 for me?
Output: 7.70

* * *

target_or_test_system: Human recombinant MMP-2 (Homo sapiens)
Construct: made in house; host or cells: MMP-2-transfected p2AHT2 cells
assay_text: In vitro MMP inhibition, IC50 determination (fluorogenic substrate I)
Assay type: biochemical
run_conditions: value outside parenthesis
Method: Several hydroxamates and salts thereof were analyzed in in vitro assays to determine their ability to inhibit the MMP cleavage of peptide substrates. Inhibition (Ki) and IC50 constants were calculated from the assayed hydroxamate-MMP interactions. […] The assays from which the IC50 determinations were made were performed as follows. […] The assayed hydroxamate samples were, incubated in Microfluorrm White Plates (Dynatech, Chantilly, VA) and analyzed on a Perkin Elmer L550 plate reader (Norwalk, Conn.). […]
Here, each record is paired with measured IC50 data.
Write the value in nM as a bare number.

Examples with their reported IC50 follow.
structure_string: CCc1ccc(N2CCN(CCCOc3ccc(S(=O)(=O)C4(C(=O)NO)CCOCC4)cc3)C2=O)cc1
unit_label: nM
meas_value: 341
--
structure_string: COCCN1CCC(C(=O)NO)(S(=O)(=O)c2ccc(OCCCn3nnc(-c4cccs4)n3)cc2)CC1
unit_label: nM
meas_value: 4.9

# next molecule below
Input: Can you look up the measured IC50 of O=C(NO)C1(S(=O)(=O)c2ccc(OCCCc3nc(-c4cccc([N+](=O)[O-])c4)no3)cc2)CCOCC1 for me?
Output: 6.9

* * *

target_or_test_system: Human recombinant MMP-9 (Homo sapiens)
Construct: made in house; host or cells: MMP-9-transfected HT1080 cells (spent media)
Sequence (P14780 107-707 limits assumed): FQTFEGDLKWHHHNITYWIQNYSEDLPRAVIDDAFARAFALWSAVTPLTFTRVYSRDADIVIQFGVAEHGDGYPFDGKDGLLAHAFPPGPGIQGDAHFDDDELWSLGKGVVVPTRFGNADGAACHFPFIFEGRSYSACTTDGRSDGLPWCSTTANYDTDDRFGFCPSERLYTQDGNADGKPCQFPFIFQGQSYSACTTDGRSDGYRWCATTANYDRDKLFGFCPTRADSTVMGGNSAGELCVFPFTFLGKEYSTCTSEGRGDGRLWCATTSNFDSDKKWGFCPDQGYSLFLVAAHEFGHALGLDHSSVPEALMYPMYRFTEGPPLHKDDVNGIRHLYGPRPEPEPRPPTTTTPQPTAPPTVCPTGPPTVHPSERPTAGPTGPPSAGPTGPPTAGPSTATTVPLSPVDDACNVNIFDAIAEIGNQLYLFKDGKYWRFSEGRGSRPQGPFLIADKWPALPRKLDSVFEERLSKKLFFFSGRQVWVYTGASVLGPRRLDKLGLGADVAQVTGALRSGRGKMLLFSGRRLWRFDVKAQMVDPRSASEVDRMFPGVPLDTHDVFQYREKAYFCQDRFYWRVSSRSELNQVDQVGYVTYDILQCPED
assay_text: In vitro MMP inhibition, IC50 determination (fluorogenic substrate I)
Format: biochemical
run_conditions: substrate (I) 4 μM, room temperature; values not in parenthesis
parameter: IC50

Input: Query IC50 on Human recombinant MMP-9 (Homo sapiens) for O=C1c2ccccc2C(=O)N1CCCOc1ccc(S(=O)(=O)C2(C(=O)NO)CCOCC2)cc1
Output: > 10 µM

Input: Query IC50 on Human recombinant MMP-9 (Homo sapiens) for O=C1c2ccccc2CN1CCCOc1ccc(S(=O)(=O)C2(C(=O)NO)CCOCC2)cc1
Output: > 10 µM

Input: Query IC50 on Human recombinant MMP-9 (Homo sapiens) for O=C(OCCCCOc1ccc(S(=O)(=O)C2(C(=O)NO)CCOCC2)cc1)N1CCc2ccccc2C1
Output: > 10 µM

* * *

target_or_test_system: Human recombinant MMP-2 (Homo sapiens, UniProt P08253)
Construct: made in house; host or cells: MMP-2-transfected p2AHT2 cells
assay_text: In vitro MMP inhibition, IC50 determination (fluorogenic substrate I)
Format: biochemical
run_conditions: value outside parentheses (Ki in parenthesis)
parameter: IC50

compound: CC(C)(COc1ccc(S(=O)(=O)C2(C(=O)NO)CCOCC2)cc1)CSc1ccccc1 [Example 437]
IC50: > 10000 nM
//
compound: O=C(NO)C1(S(=O)(=O)c2ccc(OCCC3CCCCC3)cc2)CCOCC1 [Example 478]
IC50: 1 nM

Input: Can you look up the measured IC50 of O=C(NO)C1(S(=O)(=O)c2ccc(OCCSc3nc4ccccc4s3)cc2)CCOCC1 [Example 341] for me?
Output: 16.8 nM

Input: Can you look up the measured IC50 of CC(C)=CCCC(C)CCOc1ccc(S(=O)(=O)C2(C(=O)NO)CCOCC2)cc1 (stereo not shown) [Example 470] for me?
Output: 7 nM

* * *

target_or_test_system: Human recombinant MMP-1 (Homo sapiens)
Construct: made in house; host or cells: MMP-1-transfected HT-1080 cells (spent media)
Sequence (P03956 100-469): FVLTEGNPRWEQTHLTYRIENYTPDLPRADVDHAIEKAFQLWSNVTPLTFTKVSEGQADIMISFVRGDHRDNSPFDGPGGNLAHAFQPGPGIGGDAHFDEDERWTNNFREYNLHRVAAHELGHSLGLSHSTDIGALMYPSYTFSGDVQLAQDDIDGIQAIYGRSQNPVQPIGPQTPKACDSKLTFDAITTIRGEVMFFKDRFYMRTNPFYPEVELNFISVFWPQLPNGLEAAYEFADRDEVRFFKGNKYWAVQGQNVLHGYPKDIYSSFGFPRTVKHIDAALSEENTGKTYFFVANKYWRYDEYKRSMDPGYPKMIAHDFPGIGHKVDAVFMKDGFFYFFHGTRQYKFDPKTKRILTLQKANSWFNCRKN
assay_text: In vitro MMP inhibition, IC50 determination (fluorogenic substrate I)
Type: biochemical
run_conditions: value outside parenthesis
parameter: IC50

Examples with their reported IC50 follow.
structure_string: CC(C)c1ccc(C(=O)NNC(=O)CCCOc2ccc(S(=O)(=O)C3(C(=O)NO)CCOCC3)cc2)cc1
meas_value: 1.17 µM
//
structure_string: Cc1ccc(-c2nnc(CCCOc3ccc(S(=O)(=O)C4(C(=O)NO)CCOCC4)cc3)o2)cc1
meas_value: 7.26 µM
//
structure_string: O=C(NO)C1(S(=O)(=O)c2ccc(OCCCc3nnc(CC4CCCCC4)o3)cc2)CCOCC1
meas_value: > 10 µM
//
structure_string: COc1cccc(-c2nnc(CCCOc3ccc(S(=O)(=O)C4(C(=O)NO)CCOCC4)cc3)o2)c1
meas_value: > 10 µM
//
structure_string: CCc1ccc(N2CCN(CCCOc3ccc(S(=O)(=O)C4(C(=O)NO)CCOCC4)cc3)C2=O)cc1
meas_value: 6.96 µM

# next molecule below
Input: Query IC50 on Human recombinant MMP-1 (Homo sapiens) for O=C(NO)C1(S(=O)(=O)c2ccc(OCCc3cccc(-c4ccc(F)cc4)c3)cc2)CCOCC1
Output: > 10 µM
